- assay comment: In vivo PK study, IP, SC and PO
- test context: male, CD-1, mouse, plasma, ip, 20 mg/kg

- smiles code: "CC(C)Oc1ccc(-c2ncc(CNc3ccnc(C(F)(F)F)c3)cn2)cc1Cl"
  Vd/F: "0.25 L/kg"

====

- tgt: CFTR cystic fibrosis transmembrane conductance regulator (Homo sapiens, UniProt P13569)
- Sequence (P13569 whole entry): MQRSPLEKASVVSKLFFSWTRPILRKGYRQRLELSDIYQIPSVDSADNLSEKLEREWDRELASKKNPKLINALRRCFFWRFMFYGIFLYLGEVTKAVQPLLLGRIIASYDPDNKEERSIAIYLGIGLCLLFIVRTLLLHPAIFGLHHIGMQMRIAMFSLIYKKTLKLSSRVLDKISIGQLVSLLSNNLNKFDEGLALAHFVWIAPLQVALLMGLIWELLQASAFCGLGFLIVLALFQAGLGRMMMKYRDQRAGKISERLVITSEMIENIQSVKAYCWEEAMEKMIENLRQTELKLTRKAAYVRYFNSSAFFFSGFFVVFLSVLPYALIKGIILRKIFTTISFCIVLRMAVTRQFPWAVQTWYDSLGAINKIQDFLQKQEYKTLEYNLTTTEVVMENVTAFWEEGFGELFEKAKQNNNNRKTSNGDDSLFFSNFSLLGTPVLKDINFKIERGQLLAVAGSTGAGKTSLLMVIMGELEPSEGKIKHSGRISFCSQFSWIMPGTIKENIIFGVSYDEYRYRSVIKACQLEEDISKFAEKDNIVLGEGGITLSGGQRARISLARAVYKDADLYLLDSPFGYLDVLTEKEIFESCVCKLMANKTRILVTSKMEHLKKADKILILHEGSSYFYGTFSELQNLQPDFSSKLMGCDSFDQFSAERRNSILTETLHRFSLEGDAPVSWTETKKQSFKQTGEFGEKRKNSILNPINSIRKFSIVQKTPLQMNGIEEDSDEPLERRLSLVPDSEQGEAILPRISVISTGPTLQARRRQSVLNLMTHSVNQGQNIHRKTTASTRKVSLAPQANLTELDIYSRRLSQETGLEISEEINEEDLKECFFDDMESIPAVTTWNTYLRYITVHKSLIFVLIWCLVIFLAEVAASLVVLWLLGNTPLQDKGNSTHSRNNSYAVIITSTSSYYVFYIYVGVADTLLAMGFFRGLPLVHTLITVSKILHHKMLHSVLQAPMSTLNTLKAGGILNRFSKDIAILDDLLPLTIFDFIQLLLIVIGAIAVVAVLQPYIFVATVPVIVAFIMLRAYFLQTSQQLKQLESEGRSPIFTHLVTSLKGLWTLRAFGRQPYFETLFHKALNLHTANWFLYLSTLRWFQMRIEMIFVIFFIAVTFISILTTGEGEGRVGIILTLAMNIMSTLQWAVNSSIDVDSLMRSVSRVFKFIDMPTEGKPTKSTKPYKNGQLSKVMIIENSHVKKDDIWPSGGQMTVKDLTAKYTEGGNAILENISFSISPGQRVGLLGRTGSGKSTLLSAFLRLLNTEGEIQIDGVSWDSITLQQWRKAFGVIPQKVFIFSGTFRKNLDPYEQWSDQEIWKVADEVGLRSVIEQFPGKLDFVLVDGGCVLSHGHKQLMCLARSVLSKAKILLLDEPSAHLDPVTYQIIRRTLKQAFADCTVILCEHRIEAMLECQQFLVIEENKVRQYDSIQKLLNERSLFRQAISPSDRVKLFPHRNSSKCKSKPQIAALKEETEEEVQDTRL
- assay comment: Ion channel profiling at Charles River: CFTR
- test context: expressed in CHO cells; read-out: ESTIMATED IC50
pIC50: −log10 of the molar value.
parameter: pIC50

- smiles code: "CC(C)Oc1ccc(-c2ncc(CNc3ccnc(C(F)(F)F)c3)cn2)cc1Cl"
  tgt: "CFTR cystic fibrosis transmembrane conductance regulator (Homo sapiens, UniProt P13569)"
  parameter: "pIC50"
  reported measurement: "< 4.52"

Data origin, for the record: paper PMC9929129
